Data provenance: patent US20260258050A1

Target: Human IL-17A (Homo sapiens, UniProt Q16552)
Sequence (Q16552 20-155 limits assumed): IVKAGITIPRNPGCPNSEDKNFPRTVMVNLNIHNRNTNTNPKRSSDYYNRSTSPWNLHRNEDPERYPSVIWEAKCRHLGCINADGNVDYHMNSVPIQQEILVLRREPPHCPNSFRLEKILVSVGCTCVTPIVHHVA
Assay: Inhibition of human IL-17A protein-induced GROα/CXCL1 production in HT-29 cells
Format: cell-based
Parameters: purchased R&D 317-ILB; host or cells: added exogenously to HT-29 cells
Settings: 30 ng/mL human IL-17A protein, 48 h, GROα in supernatant by ELISA kit, read-out: Inhibitory IC50 of compounds on HT-29 cell GROα/CXCL1
Listing of entries alongside the reported IC50.

Recorded IC50, per entry:
CCC1Cc2n[nH]c(C)c2-c2cc(F)c(NC(=O)[C@@H](NC(=O)c3ccnn3C(C)C)C(C3CC3)C3CC3)cc2CO1 (single isomer, unassigned) [compound 120b]    0.1 to 0.5 µM
CCn1nccc1C(=O)N[C@H](C(=O)Nc1ccc2c(c1)CNC(=O)Cc1n[nH]c(C)c1-2)C(C1CC1)C1CC1 [compound 28]    0.1 to 0.5 µM
Cc1[nH]nc2c1-c1cc(F)c(NC(=O)[C@@H](NC(=O)c3ccnn3C(C)C)C(C3CC3)C3CC3)cc1CN(CC(C)(F)F)C(=O)C2 [compound 148]    ≤ 0.1 µM

Return reported IC50. Input molecule: Cc1[nH]nc2c1-c1cnc(NC(=O)[C@@H](NC(=O)/C(F)=C\C3CC3)C(C3CC3)C3CC3)cc1COCC2 [compound 239] ≤ 0.1 µM

Give me measured IC50, please, for this molecule: Cc1[nH]nc2c1-c1cnc(NC(=O)[C@@H](NC(=O)c3ccnn3C(C)C)C(C3CC3)C3CC3)cc1CN(C1CC1)C(=O)C2 [compound 191] ≤ 0.1 µM

Kindly indicate its recorded IC50. Item: Cc1[nH]nc2c1-c1cnc(NC(=O)[C@@H](NC(=O)c3ccnn3C(C)C3CC3)C(C3CC3)C3CC3)cc1COCC2 (single isomer, unassigned) [compound 188b] ≤ 0.1 µM

For the molecule Cc1[nH]nc2c1-c1cnc(NC(=O)[C@@H](NC(=O)c3ccnn3CCCF)C(C3CC3)C3CC3)cc1COCC2 [compound 124] , report IC50. ≤ 0.1 µM

# return recorded IC50 for input CCn1nccc1C(=O)N[C@H](C(=O)Nc1cc2c(cc1F)-c1c(n[nH]c1C)CC(=O)N(C(C)C)C2)C(C1CC1)C1CC1 [compound 151] ≤ 0.1 µM

Give IC50 for the following molecule: Cc1[nH]nc2c1-c1cc(F)c(NC(=O)[C@@H](NC(=O)c3ccnn3CCOC(C)C)C(C3CC3)C3CC3)cc1COCC2 [compound 98] 0.1 to 0.5 µM

Please look at this molecule and report its IC50: Cc1[nH]nc2c1-c1cc(F)c(NC(=O)[C@@H](NC(=O)c3ccnn3CCCF)C(C3CC3)C3CC3)cc1CN(C1CC1)CC2 [compound 218] ≤ 0.1 µM

Supply reported IC50 belonging to this molecule: Cc1[nH]nc2c1-c1cnc(NC(=O)[C@@H](NC(=O)c3ccnn3CC(F)(F)F)C(C3CC3)C3CC3)cc1COCC2 [compound 236] 0.1 to 0.5 µM

Read off the recorded IC50 for Cc1[nH]nc2c1-c1cc(F)c(NC(=O)[C@@H](NC(=O)c3ccnn3C(C)C3CC3)C(C3CC3)C3CC3)cc1COCC2 (single isomer, unassigned) [compound 41b] ≤ 0.1 µM

Determine its reported IC50: CC(C)=C(F)C(=O)N[C@H](C(=O)Nc1cc2c(cc1F)-c1c(n[nH]c1C)CCOC2)C(C1CC1)C1CC1 [compound 232] ≤ 0.1 µM

Provide measured IC50 value, entry: CCn1nccc1C(=O)N[C@H](C(=O)Nc1cc2c(cc1F)-c1c(n[nH]c1C)CC(=O)N(CC(C)(F)F)C2)C(C1CC1)C1CC1 [compound 149] ≤ 0.1 µM

Please look at this molecule and report its IC50: Cc1[nH]nc2c1-c1cc(F)c(NC(=O)[C@@H](NC(=O)c3ccnn3CCCF)C(C3CC3)C3CC3)cc1CN(CC(F)F)C(=O)C2 [compound 172] ≤ 0.1 µM
